# TARGET DESC: Prostaglandin G/H synthase 1 (Ovis aries)
# Sequence (P05979 whole entry): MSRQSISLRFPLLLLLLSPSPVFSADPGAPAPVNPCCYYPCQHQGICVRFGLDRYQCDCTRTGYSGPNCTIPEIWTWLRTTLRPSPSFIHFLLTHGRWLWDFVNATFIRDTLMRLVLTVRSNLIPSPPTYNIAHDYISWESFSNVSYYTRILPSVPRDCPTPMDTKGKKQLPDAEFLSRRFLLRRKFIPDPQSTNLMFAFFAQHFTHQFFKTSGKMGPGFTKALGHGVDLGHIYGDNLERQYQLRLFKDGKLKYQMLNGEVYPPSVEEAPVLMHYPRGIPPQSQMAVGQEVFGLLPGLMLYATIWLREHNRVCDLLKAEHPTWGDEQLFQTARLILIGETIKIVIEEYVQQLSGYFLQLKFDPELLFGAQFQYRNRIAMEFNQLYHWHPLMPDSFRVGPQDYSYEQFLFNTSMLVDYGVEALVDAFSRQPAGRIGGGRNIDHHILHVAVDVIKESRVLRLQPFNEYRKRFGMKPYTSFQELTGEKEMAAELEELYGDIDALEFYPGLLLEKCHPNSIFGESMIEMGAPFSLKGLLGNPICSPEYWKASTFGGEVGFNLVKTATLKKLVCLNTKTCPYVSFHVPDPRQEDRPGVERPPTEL
Below, each entry is listed alongside its reported pIC50.
The meaning of pIC50 here: minus log10 of the concentration in molar units.

Some entries whose results are on file:
O=c1c2ccccc2n(CCOS(=O)(=O)c2ccc(C(F)(F)F)cc2)c2ccccc12: 4.06
CC(=O)Oc1ccccc1C(=O)OCCn1c2ccccc2c(=O)c2ccccc21: 4.40

Which pIC50 reading was recorded for the compound COc1ccc2cc([C@H](C)C(=O)OCCn3c4ccccc4c(=O)c4ccccc43)ccc2c1 ? 4.52
